Source of measurements: patent US8993606B2

test: Example 4: seven-day dosing in iron-overloaded human subjects (PK, tolerability); assay type: in vivo; details: human, plasma; 16 mg/kg daily 7 days oral; read-out: t½ (converted)
assay metric: half-life (h)
Number only, in h; omit the unit.

Q) What does the record list as half-life for COCCOCCOCCOc1cccc(C2=N[C@@](C)(C(=O)O)CS2)c1O [Compound 1] ?
A) 21.3

* * *

test: Example 9: single-dose study in healthy human subjects 30-75 mg/kg and 20 mg/kg x 2 (PK); type: in vivo; conditions: human, plasma; single oral dose 30 mg/kg
assay metric: Cmax
State the value, then name its unit.

Q) May I ask what Cmax has been recorded for COCCOCCOCCOc1cccc(C2=N[C@@](C)(C(=O)O)CS2)c1O [Compound 1] ?
A) 68.2 µg/mL

* * *

Assay: Example 9: single-dose study in healthy human subjects 30-75 mg/kg and 20 mg/kg x 2 (PK)
Assay type: in vivo
Details: human, plasma; single oral dose 40 mg/kg
Experimental: Example 9 was a single-dose escalating study in healthy volunteers. The objectives of the study were to assess the safety, tolerability, pharmacokinetic, and pharmacodynamics of single ascending doses of Compound 1. The doses tested were 30, 40, 50, 60, and 75 mg/kg once daily and a regimen of 20 mg/kg twice a day, which extended the range of doses evaluated. This Example confirms the earlier results obtained with higher dosage, as described in Example 7. […]
assay metric: AUC(0-t) (µg·h/mL)
Just the number in µg·h/mL, nothing appended.

Q) Data request, read-out AUC(0-t), for COCCOCCOCCOc1cccc(C2=N[C@@](C)(C(=O)O)CS2)c1O [Compound 1]
A) 205

* * *

assay: Example 4: seven-day dosing in iron-overloaded human subjects (PK, tolerability); format: in vivo; conditions: human, plasma, oral; across doses 3-32 mg/kg; read-out: t½ (converted)
assay metric: half-life (h)
Numbers only here, please. The scale is h.

Q) Query (compound): `COCCOCCOCCOc1cccc(C2=N[C@@](C)(C(=O)O)CS2)c1O` ; field requested: half-life
A) 19.2

* * *

assay: Example 9: single-dose study in healthy human subjects 30-75 mg/kg and 20 mg/kg x 2 (PK); type: in vivo; details: human, plasma; single oral dose 60 mg/kg
assay metric: AUC(0-t) (µg·h/mL)
Could you give me the number in µg·h/mL? Just the number is fine.

Q) Record request: AUC(0-t) value, item COCCOCCOCCOc1cccc(C2=N[C@@](C)(C(=O)O)CS2)c1O [Compound 1]
A) 204

* * *

experiment: Example 8: single-dose study in healthy human subjects 3-16 mg/kg (PK); format: in vivo; settings: male, human, plasma, po, 6 mg/kg, single oral dose 6 mg/kg; mean of 3 subjects; read-out: AUC0-t
assay metric: AUC(0-t)
Please answer in the form of a number followed by its unit of measurement.

Q) Reported AUC(0-t), compound `COCCOCCOCCOc1cccc(C2=N[C@@](C)(C(=O)O)CS2)c1O` : ____
A) 25300 ng·h/mL

* * *

Experiment: Example 6: multiple-dose study in iron-overloaded human subjects (PK)
Assay type: in vivo
Settings: both sexes, human, plasma; 32 mg/kg/day, 7 days oral; median; read-out: tmax
Source text: Example 6 was a multiple-dose, escalating study in iron-overloaded subjects conducted at 5 centers in the US, Australia, and Thailand. Men and women at least 18 years of age qualified to participate if they were able to voluntarily give consent and had transfusional overload requiring treatment with an iron chelator and were willing to discontinue their chelation for a period of at least 5 days prior to screening and during the study for a total of up to 35 days. […]
assay metric: Tmax (h)
All answers are understood in h, so give the number only.

Q) Tmax lookup needed for COCCOCCOCCOc1cccc(C2=N[C@@](C)(C(=O)O)CS2)c1O [Compound 1] , thanks.
A) 1.49

* * *

Experiment: Example 8: single-dose study in healthy human subjects 3-16 mg/kg (PK)
Format: in vivo
Conditions: male, human, plasma; single oral dose 10 mg/kg; mean of 3 subjects
Protocol: Example 8 was a double-blind, placebo-controlled single dose-escalating study in healthy subjects. […] The objectives of this study were to assess the safety, tolerability, and pharmacokinetics of ascending single doses of Compound 1 compared to placebo. Additionally, dose proportionality and pharmacodynamics of Compound 1 were assessed. Four doses of Compound 1 (3, 6, 10, and 16 mg/kg), in capsule form, were evaluated in this study. […]
assay metric: Cmax
Remember to put the unit after the number in your answer.

Q) Report Cmax for COCCOCCOCCOc1cccc(C2=N[C@@](C)(C(=O)O)CS2)c1O [Compound 1] please.
A) 16600 ng/mL

* * *

test: Example 9: single-dose study in healthy human subjects 30-75 mg/kg and 20 mg/kg x 2 (PK); assay type: in vivo; details: human, urine and plasma; single oral dose 30 mg/kg; read-out: CLr
assay metric: CL renal (mL/min)
Report the value in mL/min with no unit label.

Q) Fill in: CL renal of `COCCOCCOCCOc1cccc(C2=N[C@@](C)(C(=O)O)CS2)c1O` is ___
A) 139

* * *

Assay: Example 4: seven-day dosing in iron-overloaded human subjects (PK, tolerability)
Type: in vivo
Conditions: human, plasma; 3 mg/kg daily 7 days oral
Experimental: A dose-escalation study to assess the safety, tolerability, pharmacokinetics and pharmacodynamics of Compound 1, which correspond to a capsule formulation of (S)-3′-(OH)-DADFT-PE was conducted in 16 adult patients with iron overloaded consequent to transfusions. […] Compound 1 was supplied as capsules containing 50 mg, 100 mg, or 250 mg. The capsules were manufactured in accordance with Annex 13 and the principle of cGMP at Aptuit (10245 Hickman Mills Drive, Kansas City, Mo. 64137). […]
assay metric: Cmax (ng/mL)
Reply with just the number (in ng/mL).

Q) I am curious: what Cmax value has been reported for COCCOCCOCCOc1cccc(C2=N[C@@](C)(C(=O)O)CS2)c1O [Compound 1] ?
A) 5910

* * *

assay: Example 9: single-dose study in healthy human subjects 30-75 mg/kg and 20 mg/kg x 2 (PK); format: in vivo; details: human, plasma; single oral dose 30 mg/kg; median; read-out: tmax
assay metric: Tmax (h)
Could you give me the number in h? Just the number is fine.

Q) Need Tmax, item COCCOCCOCCOc1cccc(C2=N[C@@](C)(C(=O)O)CS2)c1O [Compound 1]
A) 1

* * *

experiment: Example 8: single-dose study in healthy human subjects 3-16 mg/kg (PK); assay type: in vivo; settings: male, human, plasma; single oral dose 6 mg/kg; mean of 3 subjects
assay metric: Cmax (ng/mL)
Please give a number only; it is taken to be in ng/mL.

Q) Using the record for COCCOCCOCCOc1cccc(C2=N[C@@](C)(C(=O)O)CS2)c1O [Compound 1] , report its Cmax.
A) 12200

* * *

assay: Example 7: high single doses in healthy human subjects (PK); type: in vivo; conditions: both sexes, human, plasma; single oral dose 40 mg/kg, fasted; read-out: Vz/F
assay metric: Vd/F

Q) // Vd/F lookup, key: `COCCOCCOCCOc1cccc(C2=N[C@@](C)(C(=O)O)CS2)c1O`
A) 542 L

* * *

Test: Example 6: multiple-dose study in iron-overloaded human subjects (PK)
Assay type: in vivo
Conditions: both sexes, human, plasma; 3 mg/kg/day, 7 days oral; N = 4
Description: Example 6 was a multiple-dose, escalating study in iron-overloaded subjects conducted at 5 centers in the US, Australia, and Thailand. Men and women at least 18 years of age qualified to participate if they were able to voluntarily give consent and had transfusional overload requiring treatment with an iron chelator and were willing to discontinue their chelation for a period of at least 5 days prior to screening and during the study for a total of up to 35 days. […]
assay metric: Cmax (ng/mL)
State just the number; it will be interpreted in ng/mL.

Q) Value lookup for Cmax; key = `COCCOCCOCCOc1cccc(C2=N[C@@](C)(C(=O)O)CS2)c1O`
A) 5910

* * *

test: Example 4: seven-day dosing in iron-overloaded human subjects (PK, tolerability); type: in vivo; details: human, plasma; 8 mg/kg daily 7 days oral; read-out: Vz/F
assay metric: Vd/F
Please format your answer as a value with the unit trailing.

Q) Name the recorded Vd/F for COCCOCCOCCOc1cccc(C2=N[C@@](C)(C(=O)O)CS2)c1O [Compound 1] .
A) 311 L

* * *

assay: Example 8: single-dose study in healthy human subjects 3-16 mg/kg (PK); format: in vivo; conditions: male, human, plasma, po, 16 mg/kg, single oral dose 16 mg/kg; mean of 3 subjects; read-out: AUC0-24
assay metric: AUC(0-t) (ng·h/mL)
Unit ng·h/mL implied. Number only.

Q) Quick one: AUC(0-t) for COCCOCCOCCOc1cccc(C2=N[C@@](C)(C(=O)O)CS2)c1O [Compound 1] ?
A) 74600

* * *

experiment: Example 5: single-dose study in iron-overloaded human subjects (PK); format: in vivo; settings: human, plasma; single oral dose 10 mg/kg (583 mg), subject 2; read-out: tmax
assay metric: Tmax (min)
Please respond with the number in min and leave the unit unwritten.

Q) May I ask what Tmax has been recorded for COCCOCCOCCOc1cccc(C2=N[C@@](C)(C(=O)O)CS2)c1O [Compound 1] ?
A) 46.2
